Give IC50 for every item shown.
target: BIR3 domain of XIAP (Homo sapiens (Human), UniProt P98170); assay: TR-FRET assay for BIR3 (inhibition of binding of XIAP BIR3 domain to SMAC-derived Peptide A); settings: 6x His-tagged BIR3 domain (aa 241-356 of XIAP) 10 nM, Peptide A 20 nM, TR-FRET
Sequence (P98170 241-356 with tags or gaps limits assumed): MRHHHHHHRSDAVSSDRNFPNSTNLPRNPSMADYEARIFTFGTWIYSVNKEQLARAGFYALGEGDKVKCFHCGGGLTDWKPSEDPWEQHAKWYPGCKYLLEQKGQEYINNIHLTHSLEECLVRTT
Where a name gives a salt, the structure may show the parent alone.

Data request: For the compound CN[C@@H](C)C(=O)N[C@H]1CN(C(=O)c2ccc(C(C)=O)cc2)c2ccccc2N(Cc2c(OC)ccc3ccccc23)C1=O [Example 69g] , report IC50.
Data returned: 42.5 µM

Data request: For the compound CC[C@H](NC)C(=O)NC1C(=O)N(C)c2ccccc2N(Cc2c(C)ccc3ccccc23)C1=O (stereo partly drawn) , report IC50.
Data returned: > 54.8 µM

Data request: For the compound CN[C@@H](C)C(=O)N[C@H]1CN(C(=O)CC(N)=O)c2ccccc2N(Cc2c(C)ccc3ccccc23)C1=O [Example 11, hydrochloride] , report IC50.
Data returned: > 54.8 µM

Data request: For the compound CN[C@@H](C)C(=O)N[C@H]1CN(C(=O)CC2CCCCC2)c2ccccc2N(Cc2c(C)ccc3ccccc23)C1=O [Example 96e] , report IC50.
Data returned: > 54.8 µM

Data request: For the compound CN[C@@H](C)C(=O)N[C@H]1CN(C(=O)c2ccccc2[C@H](C)O)c2ccccc2N(Cc2c(C)ccc3ccccc23)C1=O (stereo in doubt) , report IC50.
Data returned: > 54.8 µM

Data request: For the compound CC[C@H](N)C(=O)NC1C(=O)N(Cc2c(OC)ccc3c(Br)cccc23)c2ccccc2N(c2ccccc2)C1=O (stereo partly drawn) , report IC50.
Data returned: > 54.8 µM

Taken from patent US10053431B2.
